Cited source: PubChem BioAssay (Tox21)

ASSAY: qHTS assay to test for compound auto fluorescence at 460 nm (blue) in HEK293 cell free culture (AID 720681)
REPORTED CONDITIONS: cell-free medium, autofluorescence 405/460 nm (blue); series mostly up to 91.3 µM
Calls of active or inactive are those of the source. Calls follow the shape of the dose curve; as a rule, active = well fitted curve in the direction sought with a large enough effect in the repeat runs; inconclusive = weak or mixed curves; inactive = flat fitted curve, though single readings scatter.
QUANTITY NAME: fluorescence, % of fluorescent control

Worked examples follow.
CCN(C(=O)c1cc(C)cc(OC[C@H](C)Nc2ccncc2)c1)C(C)C ... inactive
CCCCc1oc2ccc(NS(C)(=O)=O)cc2c1C(=O)c1ccc(OCCCN(CCCC)CCCC)cc1 ... inactive
Oc1ccc(C2(c3ccc(O)cc3)CC3CC2C2CCCC32)cc1 (configuration not stated) ... inactive
CO[Si](CCCNc1ccccc1)(OC)OC ... inactive
O=C(O)c1cc(O)c2c(c1)C(=O)c1cccc(O)c1C2=O ... inactive
O=c1[nH]sc2ccccc12 ... inactive
COc1cccc(N)c1 ... inactive
CCC1=C[C@@H]2CN(C1)Cc1c([nH]c3ccccc13)[C@@](C(=O)OC)(c1cc3c(cc1OC)N(C)[C@H]1[C@@](O)(C(=O)OC)[C@H](OC(C)=O)[C@]4(CC)C=CCN5CC[C@]31[C@@H]54)C2 ... inactive

input: Provide measured fluorescence, % of fluorescent control value, entry: "Oc1ccc2c(c1)-c1ccccc1C2"
output: inactive

input: Please supply the value of reported fluorescence, % of fluorescent control for the item "CCCCCCCC[P+](CCCCCCCC)(CCCCCCCC)CCCCCCCC"
output: inactive

input: Give fluorescence, % of fluorescent control for CC(=O)OCC(C)OC(C)=O (configuration not stated)
output: inactive

input: Give fluorescence, % of fluorescent control for CCCCC(CC)CN=C(N)NC(N)=NCCCCCCN=C(N)NC(N)=NCC(CC)CCCC (configuration not stated)
output: inactive
